biological target: IRAK4 (Homo sapiens, UniProt Q9NWZ3); construct: Degradation of IRAK4 in OCI-LY10 was quantitatively measured using Meso Scale Discovery technology; endogenous in cells; host or cells: OCI-LY10; assay: IRAK4 MSD Degradation in OCI-LY10; type: cell-based; conditions: OCI-LY10 cells, 24 hrs incubation, MSD; read-out: IRAK4 degradation in OCI-LY10 at 24 hrs: DC50
Sequence (Q9NWZ3 whole entry): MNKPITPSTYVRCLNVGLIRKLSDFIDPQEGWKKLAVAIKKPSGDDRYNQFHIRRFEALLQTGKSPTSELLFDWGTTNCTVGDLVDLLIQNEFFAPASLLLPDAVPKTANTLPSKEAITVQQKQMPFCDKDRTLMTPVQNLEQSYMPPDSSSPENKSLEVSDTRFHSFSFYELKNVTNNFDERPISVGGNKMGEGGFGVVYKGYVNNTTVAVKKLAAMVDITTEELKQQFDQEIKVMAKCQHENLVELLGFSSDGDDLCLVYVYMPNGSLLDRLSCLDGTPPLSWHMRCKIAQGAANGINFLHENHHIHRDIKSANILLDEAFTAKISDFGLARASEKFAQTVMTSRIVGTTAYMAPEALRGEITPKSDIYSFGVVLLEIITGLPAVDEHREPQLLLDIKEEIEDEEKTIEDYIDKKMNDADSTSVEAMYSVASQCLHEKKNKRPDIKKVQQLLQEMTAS
Assay Metric: DC50

Look over these answered cases.
CN(CC1(F)CCN(c2cccc3c2n(C)c(=O)n3C2CCC(=O)NC2=O)CC1)C1CCC(n2cc3cc(NC(=O)c4cccc(C(F)(F)F)n4)ccc3n2)CC1 (centres unmarked) = > 0.2 µM
CN(C[C@H]1CC[C@H](n2cc3cc(NC(=O)c4cccc(C(F)(F)F)n4)c([S+](C)[O-])cc3n2)CC1)C1CCN(c2cccc3c2n(C)c(=O)n3C2CCC(=O)NC2=O)CC1(F)F (some centres unmarked) = > 0.2 µM

Q) Which measured DC50 value corresponds to CC([C@H]1CC[C@H](n2cc(NC(=O)c3cnn4ccc(N5C[C@H]6C[C@@H]5CO6)nc34)c(C(F)F)n2)CC1)N1CCN(CCCc2cccc3c2n(C)c(=O)n3C2CCC(=O)NC2=O)CC1 (some centres unmarked) ?
A) > 0.2 µM

Q) Moving on to Cn1c(=O)n(C2CCC(=O)NC2=O)c2cccc(N3CC(O)(CN4CCN(C[C@H]5CC[C@H](n6cc(NC(=O)c7cnn8ccc(N9C[C@H]%10CC9CO%10)nc78)c(C(F)F)n6)CC5)CC4)C3)c21 (some centres unmarked)
A) < 0.01 µM

Q) Moving on to COc1cc2nn([C@H]3CC[C@H](CN4CCC5(CC4)CCN(c4cccc6c4n(C)c(=O)n6C4CCC(=O)NC4=O)CC5)CC3)cc2cc1NC(=O)c1cncc(C(F)(F)F)n1 (some centres unmarked)
A) > 0.2 µM
